The origin of these recorded values is the Human Domainome abundance scans (Beltran et al. 2025).

# Lookup of reported abundance fitness keyed by entry
B1: Zinc finger homeobox protein 4, residues 2183 to 2238; numbered along this chain, Q86UP3 (parent)
chain: SSRTRFTDYQLRVLQDFFDTNAYPKDDEIEQLSTVLNLPTRVIVVWFQNARQKARK

Variants of: B1
Experiment: abundance fitness (aPCA) (normalised: wild type 0, dead -1); higher = more abundant; growth selection in yeast, the domain comes from the species named
Conditions: Homo sapiens
Format: numeric value only, no unit, no commentary.

Here are 8 variants together with their reported answers.
- Y23A: -0.097
- F18W: -0.027
- Y9D: -0.128
- F18D: -0.887
- Q10D: -0.454
- L11F: -0.011
- D27F: 0.019
- D8V: -0.282

Task: Need abundance fitness, item N21G
Output: -0.387

Task: Next record, please: A22F
Output: -0.228

Task: Next record, please: F17Q
Output: 0.051

Task: Next record, please: F17L
Output: -0.12
